# ASSAY_PROCEDURE: NCI Yeast Anticancer Drug Screen. Data for the sgs1 mgt1 strain (AID 161);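 note: 0% = growth of cultures given vehicle only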
# CONDITION_LABEL: S. cerevisiae sgs1 mgt1 strain, at 50.0 µM (retest, dose inferred, filed as 5.0), hits give high values
The panel holds about 79,000 compounds, 15% with a hit somewhere; the sample as a whole holds those more often. Where a SMILES comes first, the peptide text is derived from it. [ ]: non-standard residue; d: D form. The star is where a group is joined. Phe(4-NO2) = N[CH](Cc1ccc([N+](=O)[O-])cc1)C(=O)O; Boc = CC(C)(C)OC(=O)*
Entries annotated with measured growth inhibition
Quick reminder: number only, in %, skip the unit.

COMPOUND	growth inhibition, %
COc1cccc2c1C(=O)c1c(O)c3c(c(O)c1C2=O)C[C@@](O)(/C(C)=N/NS(C)(=O)=O)C[C@@H]3OC1CC(N)C(O)C(C)O1 (stereo partly specified)	77
O=C(c1ccccc1)c1ccc(Cl)cc1	4
CCCCC(=S)N1CCN(c2ccccc2)CC1	9
CN(C)CC/C(=N\Nc1ccc(Cl)cc1Cl)c1ccccc1	100
CCOC(=O)c1ccc(NC(=O)O/N=C(/Cl)CCl)cc1	50
O=C(Oc1c([N+](=O)[O-])cc(-c2ccc([N+](=O)[O-])cc2)cc1[N+](=O)[O-])c1ccccc1	87
N#CC(C(=O)C(=O)Nc1ccc(Cl)c(Cl)c1)c1c(Cl)cccc1Cl (stereo unspecified)	-1
CCCCc1c2c(nc3c1CC/C(=C\c1ccc([N+](=O)[O-])cc1)C3=O)CCCC2	92
C=C1CC/C=C(/C(=O)O)CC[C@H]2[C@@H]1CC2(C)C	68
Cc1cc(C)nc(NS(=O)(=O)c2ccc(Nc3c4ccccc4nc4c(C(=O)NC(CO)(CO)CO)cccc34)cc2)n1	-8

Problem: Recorded growth inhibition of `C=CC1(c2ccc(-c3ccccc3)cc2)OCCO1` , please.
Result: -10

Problem: Which growth inhibition is listed for `O=C(N/C(=C\c1cccc([N+](=O)[O-])c1)c1nc2ccccc2s1)c1ccccc1` ?
Result: 98

Problem: Requested read-out: growth inhibition. Entry: `COc1cc(/C=C2\S/C(=N/Nc3nc(-c4ccc(Br)cc4)cs3)NC2=O)cc(OC)c1OC`
Result: 86

Problem: Suppose we examine the compound `COC(=O)c1cc(-c2ccc(C)cc2)c2c(=O)n(-c3ccccc3)[nH]c2n1` ; what growth inhibition value has been reported?
Result: 51

Problem: Item `CCOC1=Cc2c(oc3c(C(C)(C)C)cc(OCC)cc23)OC(C(C)(C)C)=C1` has what recorded growth inhibition?
Result: 97

Problem: # lookup: growth inhibition of `C/C=C(\C)CC/C=C/CO[Si](C)(C)C(C)(C)C`
Result: 13

Problem: Given the entry `COc1ccc(/C=C2/C(=O)N(C(=O)c3ccccc3O)N=C2C)cc1OC` , report its measured growth inhibition.
Result: 61

Problem: Quick one: growth inhibition for `CC(C)c1ccc(N2C(=O)C=CC2=O)cc1` ?
Result: 98

Problem: What value of growth inhibition has been recorded for this entry: `CC(=O)N1OC2(C)c3ccccc3C1(C)c1ccccc12`
Result: 96

Problem: Value lookup for growth inhibition; key = `O=S(O)CCCCCSSc1ccc(Cl)cc1`
Result: 97

Problem: Report growth inhibition for COc1cccc2c1OC(c1ccc(C#N)cc1)C([N+](=O)[O-])=C2 (stereo unspecified) please.
Result: 98

Problem: Fill blank: measured growth inhibition of the compound `CN(C)c1nc(N(C)C)sc(=O)n1` is ____.
Result: 78

Problem: Would you kindly share the measured growth inhibition for `O=C(N/C(=C\c1ccccc1)C(=O)N1CCN(c2ccccc2)CC1)c1ccccc1` ?
Result: 7

Problem: Report growth inhibition for `CCCCCCCCCCCC(=O)OC/C=C/COC(=O)c1ccccc1` please.
Result: 69

Problem: # input compound: `COc1ccc2c(c1)C(=O)/C(=C/c1ccc([N+](=O)[O-])o1)CO2` ; wanted: its growth inhibition
Result: 100

Problem: Fill blank: measured growth inhibition of the compound `[Cl][Pt+2][Cl].[NH-]c1cc2ccccc2cc1[NH-]` is ____.
Result: 1

Problem: Entry under review: CSC(=S)SC(SC)S(C)(=O)=O (stereo unspecified) . Reported growth inhibition?
Result: -16

Problem: Which value of growth inhibition has been reported for `C[n+]1c(/C=C/c2ccc(N3CCCC3)cc2)sc2ccccc21` in the records?
Result: 99

Problem: Name the recorded growth inhibition for `CCCC(/C=N/N=C(N)N)=N\N=C(N)N` .
Result: -30

Problem: What value of growth inhibition has been reported for the following compound? `CCCCCCCCN1C(=O)c2ccccc2S1(=O)=O`
Result: 94

Problem: Any idea what growth inhibition was measured for CNC(=O)CCC(NC(=O)OC(C)(C)C)C(=O)NC(Cc1ccc([N+](=O)[O-])cc1)C(=O)NCC(=O)NC (stereo unspecified) (Boc-Glu(NHMe)-[Phe(4-NO2)]-Gly-NHMe; configuration not given here) ?
Result: 3

Problem: Sample N#CC(C(=O)CCCC(=O)Nc1cccc([N+](=O)[O-])c1)c1cccc2ccccc12 (stereo unspecified) — what was its growth inhibition?
Result: 7

Problem: Could you share which growth inhibition value was measured for COC1/C=C/OC2(C)Oc3c(C)c(O)c4c5c(cc(O)c4c3C2=O)N=C(O5)/C(C)=C\C=C\C(C)C(O)C(C)C(O)C(C)C(OC(C)=O)C1C (stereo unspecified) ?
Result: 96

Problem: For `FC(F)(F)C(F)(F)C1(F)C(F)(F)C(F)(F)C(F)(F)C(F)(F)C1(F)F` , what is its reported growth inhibition?
Result: -3
